Origin of measurements: patent US20250011330A1

- target or system: TDP1 (Homo sapiens (Human))
- Sequence (Q9NUW8 whole entry): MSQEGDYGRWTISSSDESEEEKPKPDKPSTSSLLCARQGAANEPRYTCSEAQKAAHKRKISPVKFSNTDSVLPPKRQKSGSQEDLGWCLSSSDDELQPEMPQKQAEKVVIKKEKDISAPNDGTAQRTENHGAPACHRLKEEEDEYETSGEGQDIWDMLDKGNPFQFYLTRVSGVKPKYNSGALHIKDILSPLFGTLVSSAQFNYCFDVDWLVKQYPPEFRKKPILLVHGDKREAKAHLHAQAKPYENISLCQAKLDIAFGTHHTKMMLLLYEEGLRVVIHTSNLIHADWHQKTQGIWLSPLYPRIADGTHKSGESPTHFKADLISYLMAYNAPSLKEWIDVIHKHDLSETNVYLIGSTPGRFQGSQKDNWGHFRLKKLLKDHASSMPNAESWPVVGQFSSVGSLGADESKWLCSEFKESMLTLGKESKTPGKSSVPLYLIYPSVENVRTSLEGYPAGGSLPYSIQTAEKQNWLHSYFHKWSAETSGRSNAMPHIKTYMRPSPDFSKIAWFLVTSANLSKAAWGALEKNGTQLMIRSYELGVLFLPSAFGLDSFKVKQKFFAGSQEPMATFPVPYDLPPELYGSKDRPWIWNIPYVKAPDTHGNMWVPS
- test summary: TDP1 gel-based in vitro fluorescence assay
- Format: biochemical
- Procedure: […] Gel images were scanned using a Typhoon FLA 9500 scanner (GE Healthcare) and densitometric analyses were performed using the ImageQuant software (GE Healthcare). The IC50 of TDP1 inhibitors was calculated by comparing the percentage of cleavage product (5′Cy5-[…]-p-3′) to DMSO control.
assay metric: IC50 (µM)
Record the value in µM, omitting the unit from your answer.

Looking up O=C(O)c1ccc(Nc2c(-c3ccccc3OS(=O)(=O)F)nc3cc(-c4ccccc4)ccn23)cc1 [XZ730] , I see its IC50 listed as 17.8
